Biological target: PDE4B2 (Homo sapiens, UniProt Q07343)
Construct: expressed in transfected cells; host or cells: Flp-In-293 (Flpin-293-PDE4B2 [sic])
Sequence (Q07343 1-564 isoform Q07343-2): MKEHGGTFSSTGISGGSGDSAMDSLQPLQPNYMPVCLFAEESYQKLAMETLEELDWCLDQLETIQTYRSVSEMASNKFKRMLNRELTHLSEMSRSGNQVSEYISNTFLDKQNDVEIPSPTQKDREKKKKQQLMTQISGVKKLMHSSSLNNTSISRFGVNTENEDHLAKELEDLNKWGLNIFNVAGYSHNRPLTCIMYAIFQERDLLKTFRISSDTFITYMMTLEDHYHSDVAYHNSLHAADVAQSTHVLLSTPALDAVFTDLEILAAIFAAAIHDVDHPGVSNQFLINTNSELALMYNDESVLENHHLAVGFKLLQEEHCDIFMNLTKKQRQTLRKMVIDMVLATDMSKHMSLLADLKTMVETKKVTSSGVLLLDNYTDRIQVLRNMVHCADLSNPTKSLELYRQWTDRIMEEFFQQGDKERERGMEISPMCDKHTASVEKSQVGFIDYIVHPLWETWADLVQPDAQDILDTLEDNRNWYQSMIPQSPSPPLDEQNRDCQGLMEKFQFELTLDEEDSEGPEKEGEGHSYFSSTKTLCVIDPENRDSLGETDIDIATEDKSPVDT
Experiment: PDE4B2 cell experiment (cAMP, Eu-cAMP tracer / Ulight-anti-cAMP)
Type: cell-based
Conditions: Flpin-293-PDE4B2 cells, 1 nM
measure.name: Cell Inhibition% @1 nM (%)

- [O-][S+]1CCc2nc(N3CCc4cc(N5CC(F)C5)ccc4C3)nc(NC3(CO)CCC3)c21 (stereo not drawn): 3.47
- [O-][S+]1CCc2nc(N3CCc4c(ncc5cc(Cl)ccc45)C3)nc(NC3(CO)CCC3)c21 (stereo not drawn): 6.00
- [O-][S+]1CCc2nc(N3CCc4c(nn5cc(F)ccc45)C3)nc(NC3(CO)CCC3)c21 (stereo not drawn): 23.54
- Cn1nc(Cl)c2c3c(cnc21)CN(c1nc2c(c(NC4(CO)CCC4)n1)[S+]([O-])CC2)CC3 (stereo not drawn): 7.53
- NC(=O)c1ccc2c(c1)CCN(c1nc3c(c(NC4(CO)CCC4)n1)[S+]([O-])CC3)C2 (stereo not drawn): 4.93
- O=C1CCCN1c1ccc2c(c1)CCN(c1nc3c(c(NC4(CO)CCC4)n1)[S+]([O-])CC3)C2 (stereo not drawn): 2.90
- [O-][S+]1CCc2nc(N3CC[C@H]4c5cnc(Cl)cc5OC[C@@H]4C3)nc(NC3(CO)CCC3)c21 (stereo partly drawn): 5.32
- Cn1ccc(-c2ccc3c(c2)CCN(c2nc4c(c(NC5(CO)CCC5)n2)[S+]([O-])CC4)C3)n1 (stereo not drawn): 61.02
- [O-][S+]1CCc2nc(N3CC[C@H]4c5ccc(Cl)cc5OC[C@H]4C3)nc(NC3(CO)CCC3)c21 (stereo partly drawn): 2.17
- Cn1c2c(c3ccc(Cl)cc3c1=O)CCN(c1nc3c(c(NC4(CO)CCC4)n1)[S+]([O-])CC3)C2 (stereo not drawn): -1.71
- COc1ccc2sc3c(c2c1)CCN(c1nc2c(c(NC4(CO)CCC4)n1)[S+]([O-])CC2)C3 (stereo not drawn): 19.08
- [O-][S+]1CCc2nc(N3CCc4cc(F)c(F)cc4C3)nc(NC3(CO)CCC3)c21 (stereo not drawn): -4.2
- [O-][S+]1CCc2nc(N3CC[C@@H]4c5ccccc5OC[C@H]4C3)nc(NC3(CO)CCC3)c21 (stereo partly drawn): 5.79
- [O-][S+]1CCc2nc(N3CCc4cc(Cl)c(F)cc4C3)nc(NC3(CO)CCC3)c21 (stereo not drawn): -2.7
- O=C(O)Cc1ccc(Nc2nc(N3CCc4cc(Cl)ccc4C3)nc3c2[S@+]([O-])CC3)cc1: 6.93

---

Target: PDE4B2 (Homo sapiens)
Construct: expressed in transfected cells; host or cells: Flp-In-293 (Flpin-293-PDE4B2 [sic])
Assay: PDE4B2 cell experiment (cAMP, Eu-cAMP tracer / Ulight-anti-cAMP)
Assay type: cell-based
Settings: Flpin-293-PDE4B2 cells, 1 nM
Here the recorded Cell Inhibition% @1 nM is given for each entry.
measure.name: Cell Inhibition% @1 nM (%)

* [O-][n+]1cc2c(c3ccc(Cl)cc31)CCN(c1nc3c(c(NC4(CO)CCC4)n1)[S+]([O-])CC3)C2 (stereo not shown) | 0.41
* [O-][S+]1CCc2nc(N3CC[C@@H]4c5ccc(F)cc5OC[C@H]4C3)nc(NC3(CO)CCC3)c21 (stereo partly shown) | 17.70
* O=C(O)Cc1ccc(Nc2nc(N3CCc4cc(Cl)ccc4C3)nc3c2[S@@+]([O-])CC3)cc1 | -0.97
* [O-][S+]1CCc2nc(N3CCc4cc(Cl)ncc4C3)nc(NC3(CO)CCC3)c21 (stereo not shown) | 2.20
* [O-][S+]1CCc2nc(N3CC[C@@H]4c5ccc(Br)cc5OC[C@H]4C3)nc(NC3(CO)CCC3)c21 (stereo partly shown) | 7.72
* CN1CCN(c2ccc3c(c2)CCN(c2nc4c(c(NC5(CO)CCC5)n2)[S+]([O-])CC4)C3)C1=O (stereo not shown) | 8.69
* [O-][S+]1CCc2nc(N3CCc4cc(-c5ncco5)ccc4C3)nc(NC3(CO)CCC3)c21 (stereo not shown) | 32.85

---

Molecular target: PDE4B2 (Homo sapiens, UniProt Q07343)
Construct: expressed in transfected cells; host or cells: Flp-In-293 (Flpin-293-PDE4B2 [sic])
Assay: PDE4B2 enzyme experiment (AMP-glo, cAMP substrate)
Format: biochemical
pIC50: −log10 of the molar value.
# cutoff 9 applies to pIC50; >= gives Fulfilled, < gives Not fulfilled

* [O-][S+]1CCc2nc(N3CC[C@H]4c5ccc(Cl)cc5OC[C@H]4C3)nc(NC3(CO)CCC3)c21 (stereo partly shown) [Compound 116] | Not fulfilled
* [O-][S+]1CCc2nc(N3CCc4cc(-c5cnco5)ccc4C3)nc(NC3(CO)CCC3)c21 (stereo not shown) [Compound 85] | Fulfilled
* [O-][S@+]1CCc2nc(N3CC[C@@H]4c5ccc(Cl)cc5CC[C@@H]4C3)nc(NC3(CO)CCC3)c21 [Compound 12] | Not fulfilled
* [O-][S+]1CCc2nc(N3Cc4nn5cc(Cl)cnc5c4C3)nc(NC3(CO)CCC3)c21 (stereo not shown) [Compound 2] | Not fulfilled
* Cc1nc2c(s1)CN(c1nc3c(c(NC4(CO)CCC4)n1)[S+]([O-])CC3)CC2 (stereo not shown) [Compound 16] | Not fulfilled
* Cn1c(=O)oc2cc3c(cc21)CCN(c1nc2c(c(NC4(CO)CCC4)n1)[S@+]([O-])CC2)C3 [Compound 68] | Fulfilled
* [O-][S+]1CCc2nc(N3CCc4nc(Br)sc4C3)nc(NC3(CO)CCC3)c21 (stereo not shown) [Compound 63] | Not fulfilled
* [O-][S@+]1CCc2nc(N3CC[C@H]4c5ccc(Cl)cc5OC[C@@H]4C3)nc(NC3(CO)CCC3)c21 [Compound 13] | Not fulfilled
* [O-][S+]1CCc2nc(N3CCc4c(nn5cccc(Cl)c45)C3)nc(NC3(CO)CCC3)c21 (stereo not shown) [Compound 10] | Not fulfilled
* [O-][S+]1CCc2nc(N3CCc4ncsc4C3)nc(NC3(CO)CCC3)c21 (stereo not shown) [Compound 15] | Not fulfilled
* [O-][S+]1CCc2nc(N3CCc4cc(I)ccc4C3)nc(NC3(CO)CCC3)c21 (stereo not shown) [Compound 67] | Fulfilled
* [O-][S+]1CCc2nc(N3CCc4cc(-n5ccnc5)ccc4C3)nc(NC3(CO)CCC3)c21 (stereo not shown) [Compound 90] | Fulfilled
* Cn1cc2c(n1)CCN(c1nc3c(c(NC4(CO)CCC4)n1)[S+]([O-])CC3)C2 (stereo not shown) [Compound 31] | Not fulfilled

---

Attribute: IC50
Molecular target: PDE4B2 (Homo sapiens, UniProt Q07343)
Construct: expressed in transfected cells; host or cells: Flp-In-293 (Flpin-293-PDE4B2 [sic])
Assay: PDE4B2 enzyme experiment (AMP-glo, cAMP substrate)
Assay type: biochemical
measure.name: IC50 (nM)

* [O-][S+]1CCc2nc(N3CCc4cccc(Cl)c4C3)nc(NC3(CO)CCC3)c21 (centres unmarked) | 2.11
* NC(=O)c1ccc2c(c1)CCN(c1nc3c(c(NC4(CO)CCC4)n1)[S+]([O-])CC3)C2 (centres unmarked) | 0.81
* C[C@H]1c2ccc(Cl)cc2CCN1c1nc2c(c(NC3(CO)CCC3)n1)[S@+]([O-])CC2 | 0.68
* Cn1ccc(-c2ccc3c(c2)CCN(c2nc4c(c(NC5(CO)CCC5)n2)[S+]([O-])CC4)C3)n1 (centres unmarked) | 0.05
* C[C@@H]1c2ccc(Cl)cc2CCN1c1nc2c(c(NC3(CO)CCC3)n1)[S@+]([O-])CC2 | 0.54
* COc1nc2c(c3ccc(Cl)cc13)CCN(c1nc3c(c(NC4(CO)CCC4)n1)[S+]([O-])CC3)C2 (centres unmarked) | 1.24
* [O-][S@+]1CCc2nc(N3CCc4nn5cc(Cl)cnc5c4C3)nc(NC3(CO)CCC3)c21 | 2.71
* [O-][S+]1CCc2nc(N3CCc4ccc(Cl)cc4C3)nc(NC3(CO)CCC3)c21 (centres unmarked) | 1.85
* COc1nc2cc(Cl)ccc2c2c1CN(c1nc3c(c(NC4(CO)CCC4)n1)[S+]([O-])CC3)CC2 (centres unmarked) | 0.655
* [O-][S+]1CCc2nc(N3CCc4cnc(Cl)cc4C3)nc(NC3(CO)CCC3)c21 (centres unmarked) | 9.19
* [O-][S+]1CCc2nc(N3CCc4c(Cl)cccc4C3)nc(NC3(CO)CCC3)c21 (centres unmarked) | 7.17

---

Target: PDE4B2 (Homo sapiens, UniProt Q07343)
Construct: expressed in transfected cells; host or cells: Flp-In-293 (Flpin-293-PDE4B2 [sic])
Test: PDE4B2 cell experiment (cAMP, Eu-cAMP tracer / Ulight-anti-cAMP)
Assay type: cell-based
Settings: Flpin-293-PDE4B2 cells, 100 nM
measure.name: Cell Inhibition% @100 nM (%)

- [O-][S+]1CCc2nc(N3CCc4sc(Br)cc4C3)nc(NC3(CO)CCC3)c21 (centres unmarked): 93.43
- [O-][S+]1CCc2nc(N3Cc4ccc(Cl)cc4C3)nc(NC3(CO)CCC3)c21 (centres unmarked): 33.2
- [O-][S+]1CCc2nc(N3CCc4cnc(Cl)cc4C3)nc(NC3(CO)CCC3)c21 (centres unmarked): 59.37
- [O-][S+]1CCc2nc(N3CCc4c(nn5cc(F)ccc45)C3)nc(NC3(CO)CCC3)c21 (centres unmarked): 97.65
- [O-][S+]1CCc2nc(N3CCc4cc(N5CC(F)C5)ccc4C3)nc(NC3(CO)CCC3)c21 (centres unmarked): 95.32
- [O-][S+]1CCc2nc(N3CCc4cc(C(F)(F)F)ccc4C3)nc(NC3(CO)CCC3)c21 (centres unmarked): 99.55
- Cn1c2c(c3ccc(Cl)cc3c1=O)CCN(c1nc3c(c(NC4(CO)CCC4)n1)[S+]([O-])CC3)C2 (centres unmarked): 95.76
- [O-][S+]1CCc2nc(N3CCc4cc(-n5cccn5)ccc4C3)nc(NC3(CO)CCC3)c21 (centres unmarked): 99.96

Values compiled from patent EP4678644A1.
